So I've got a bunch of compounds here, and I need their GI50 values.
system: A549; assay: NCI tumour cell line growth inhibition, 48 h
Calls of active or inactive are those of the source. No stated cut-off is given here; in the data, active = GI50 up to about 1.1 µM and inactive = higher. Where a SMILES comes first, the peptide text is derived from it. Bridges are numbered along the chain shown (N, C = ends). The star is where a group is joined. Cbz = O=C(OCc1ccccc1)*

Return value of GI50 for input N#CC1CNC(N)NC1N (stereo not given) , no commentary.
> 100 µM (inactive)

Return value of GI50 for input O=C1C(Cl)=C(N2CCN(c3ccccn3)CC2)C(=O)c2ncccc21 , no commentary.
6.56 µM (inactive)

Return value of GI50 for input Cc1ccc(S(=O)(=O)N/N=C(\c2nc3ccc(Cl)cc3nc2O)C(O)c2cccc([N+](=O)[O-])c2)cc1 (stereo not given) , no commentary.
> 100 µM (inactive)

Return value of GI50 for input CCOC(=O)C(Cc1ccccc1)(Cc1ccc(O)cn1)NC(=O)c1ccccc1 (stereo not given) , no commentary.
27.2 µM (inactive)

Return value of GI50 for input CCCCCCCCC[C@@H]1C[C@@H]2CCC3C(C(=O)OC)=C(C)N=C(N1)N32 (stereo not given in full) , no commentary.
12.3 µM (inactive)

Return value of GI50 for input O=c1[nH]nc(-c2ccc3ccccc3c2)[nH]1 , no commentary.
> 100 µM (inactive)

Return value of GI50 for input CC1OC(OC2C(O[C@H]3CC[C@@]4(C)C(=CC[C@H]5[C@@H]6C[C@@H]7O[C@]8(CC[C@@H](C)CO8)[C@@H](C)[C@@H]7[C@@]6(C)CC[C@@H]54)C3)OC(CO)C(O)C2OC2OC(CO)C(O)C(O)C2O)C(O)C(O)C1O (stereo not given in full) , no commentary.
1.81 µM (inactive)

Return value of GI50 for input O=S(=O)(Nc1nc2ccccc2nc1Nc1cccc2ccccc12)c1ccccc1 , no commentary.
7.35 µM (inactive)

Return value of GI50 for input Cc1c2c(n3c(nc4ccccc43)c1C#N)NCC2 , no commentary.
> 10 µM (inactive)

Return value of GI50 for input COC(=O)C1CCCCNC(=O)CCC(NC(=O)OCc2ccccc2)C(=O)N1 (stereo not drawn) (Cbz-Glu-Lys-OMe; lactam 1-2; configuration not given here) , no commentary.
> 100 µM (inactive)

Return value of GI50 for input COC1(OC)CC2C=C(S(=O)(=O)c3ccccc3)C1N(Cc1ccccc1)C2=O (stereo not given) , no commentary.
33 µM (inactive)

Return value of GI50 for input C#C[C@]1(O)CC[C@H]2[C@@H]3CCC4=C/C(=N/OC(=O)c5cccc6cc7ccccc7nc56)CC[C@@H]4[C@H]3CC[C@@]21CC , no commentary.
> 100 µM (inactive)

Return value of GI50 for input Cc1cc2c(O)c(c1)COCc1cc(C)cc(c1O)COCc1cc(C)cc(c1O)COC2 , no commentary.
> 100 µM (inactive)

Return value of GI50 for input COC(=O)C12CCCN1CCC2 , no commentary.
> 100 µM (inactive)

Return value of GI50 for input OC(CCN1CCN(CCOC(c2ccc(F)cc2)c2ccc(F)cc2)CC1)c1ccc(Br)cc1 (stereo not given) , no commentary.
9.44 µM (inactive)

Return value of GI50 for input COc1ccc2c(c1)[n+]([O-])c(-c1nc3ccccc3s1)c(N)[n+]2[O-] , no commentary.
> 100 µM (inactive)

Return value of GI50 for input CSc1nc(C#N)c(N)n1C , no commentary.
> 100 µM (inactive)

Return value of GI50 for input COc1cccc2c1C(=O)C(=O)c1c-2oc(=O)c2cc(C)cc(OC)c12 , no commentary.
> 75 µM (inactive)

Return value of GI50 for input COC(=O)[C@]12CCC(=O)N1[C@H](C(=O)O)Cc1c2[nH]c2ccccc12 , no commentary.
> 100 µM (inactive)

Return value of GI50 for input Oc1cc2cc(-c3ccccc3)[nH]c2c2ccccc12 , no commentary.
30.1 µM (inactive)
